Every entry's value here was drawn from ChEMBL document CHEMBL1201862.

Test system: OVCAR-5
ASSAY METHOD TEXT: NCI tumour cell line growth inhibition, 48 h
The source made the active and inactive calls. No stated cut-off is given here; in the data, active = GI50 up to about 1.1 µM and inactive = higher.
OBSERVABLE: GI50

C=C1C(=O)O[C@H]2C3C(=C(C)CC[C@@H]12)C(=O)[C@@H]1OC31C (stereo partly specified); 10.4 µM (inactive)

Provide GI50 values for the following items, in order.
1. Cc1cc(C)c(C2[C@H]3C(=O)N(c4ccc(Cc5ccc(N6C(=O)[C@@H]7ON(c8ccccc8)C(c8c(C)cc(C)cc8C)[C@@H]7C6=O)cc5)cc4)C(=O)[C@H]3ON2c2ccccc2)c(C)c1 (stereo partly specified)
2. Cn1c2ccccc2c(=NNc2ccc(S(N)(=O)=O)cc2)c2ccccc21
3. Cc1cc(C)nc(NS(=O)(=O)c2ccc(NC(=O)c3cccc4c(=O)c5ccccc5[nH]c34)cc2)n1
4. CN(CCCCN)c1ccc2c(=O)[nH][nH]c(=O)c2c1
5. CCCCCCCCCCCCCC/C(C(=O)OC)=C(/O)C(=O)OCC
6. N#CC(/N=N/c1ccc(Cl)cc1)c1nc2ccccc2o1 (stereo unspecified)
7. O=C1C(=O)C(CCCO)(CCCO)CCCCCCCCC1(CCCO)CCCO
8. CC(=O)OC(CCC1(C)OC1COc1ccc(CCNC(=O)c2ccccc2)cc1)C(C)(C)OC(C)=O (stereo unspecified)

Result:
> 100 µM (inactive)
24.4 µM (inactive)
> 10 µM (inactive)
> 100 µM (inactive)
27 µM (inactive)
> 100 µM (inactive)
> 100 µM (inactive)
> 100 µM (inactive)

Provide GI50 values for the following items, in order.
1. CC(C)(C)C1=C(Br)C(C(C)(C)C)OP1(=O)O (stereo unspecified)
2. CCCCc1c2c(nc3c1CCCC3=O)C(=O)CCC2
3. CC1(C)O[C@@H]2[C@@H](COC(C)(C)O[C@H]2C2SCCCS2)O1

Result:
> 100 µM (inactive)
> 100 µM (inactive)
> 100 µM (inactive)

Provide GI50 values for the following items, in order.
1. Cc1ccc(S(=O)(=O)NC(=O)NC(CC(=O)O)C(=O)O)cc1 (stereo unspecified)
2. CCOC(=O)c1ccc(/N=N\c2ccc(N(CCC#N)CCC#N)cc2C)cc1

Result:
["> 100 µM (inactive)", "> 100 µM (inactive)"]

Provide GI50 values for the following items, in order.
1. COc1cc(NS(C)(=O)=O)ccc1NCc1c[nH]c2ccc3nc(C)ccc3c12
2. CCOC(=O)C(=[N+]=[N-])C(=O)CN1C(=O)C2CC(C)=C(C)CC2C1O (stereo unspecified)

Result:
["39.5 µM (inactive)", "> 100 µM (inactive)"]

---

System: IGROV-1
ASSAY METHOD TEXT: NCI tumour cell line growth inhibition, 48 h
The source made the active and inactive calls. Rule as the data show it: active = GI50 up to about 1.1 µM and inactive = higher.
OBSERVABLE: GI50

Field: example entries. Status: answers known.
Cc1ccc(C)c(N2C(=O)C(=O)C(c3nc4ccccc4o3)/C(=N\NC(=O)c3ccccc3O)C2=O)c1 (centres undefined); 6.52 µM (inactive)
O=c1c2ccccc2nc2n1CCc1c-2[nH]c2ccccc12; 19.8 µM (inactive)
CCOP(=O)(OCC)C(Nc1ccc(Br)cc1)c1cccc([N+](=O)[O-])c1 (centres undefined); 22.1 µM (inactive)

For the next question, use this molecule.
Note to self: GI50 recorded for COc1ccc(-n2nnc3c(C#N)c(C)c(-c4ccccc4)n3c2=O)cc1 was 2.22 µM (inactive)

---

Tested on: Hs-578T
ASSAY METHOD TEXT: NCI tumour cell line growth inhibition, 48 h
The source made the active and inactive calls. Cut-off read from the data, not from the text of the source: active = GI50 up to about 1.1 µM and inactive = higher.
Parameter call: string, one of Y (active), N (inactive)

CC1(C)CCN2C(=O)C34CCCC3CC21S4 (stereo unspecified); N
O=C(O)C(F)(F)C(F)(F)C(F)(F)C(F)(F)C(=O)O; N
Cc1cn([C@H]2C[C@](C)(CO)N(C)O2)c(=O)[nH]c1=O; N
COc1cc(OC)c(NC2=NCCO2)cc1Cl; N
Nc1nnc2n1C(=O)C(C1(C3=Nc4nnc(N)n4C3=O)Cc3ccccc3C1=O)=N2; N
CN(C)c1ccc(/C=N/N=C2\C(=O)Nc3c(Cl)cc(Cl)cc32)cc1; N

Request: # lookup: test call for CN(C)CCCN1c2ccccc2Sc2cnccc21
Result: N

Request: # lookup: test call for Nc1ccn(C2CCC(CO)O2)c(=S)n1 (stereo unspecified)
Result: N

Request: # lookup: test call for Nc1ncnc2c1ncn2C1OC(CO)C(O)C1N (stereo unspecified)
Result: Y

Request: # lookup: test call for CCCCCC1=C/C(=C\c2[nH]c(-c3ccc[nH]3)cc2OC)N=C1C
Result: Y

---

Tested on: NCI-H460
ASSAY METHOD TEXT: NCI tumour cell line growth inhibition, 48 h
Active and inactive are the calls of the source. No stated cut-off is given here; in the data, active = GI50 up to about 1.1 µM and inactive = higher.
Parameter call: string, one of yes (1) = active, no (0) = inactive

CCOc1ccc2nc(NC(=O)C(=O)C(C(=O)c3ccccc3-c3ccccc3)C3OC(=O)c4ccccc43)sc2c1 (centres undefined); no (0)
COc1ccc(Cn2nc(OCc3ccccn3)c3cc([N+](=O)[O-])ccc32)cc1; no (0)
COc1cc(OC)c(NC2=NCCO2)cc1Cl; no (0)

Request: # lookup: test call for Nc1c(-c2nc3ccccc3s2)c2ccc([N+](=O)[O-])cc2c(=O)n1-c1cccc(C(=O)O)c1
Result: no (0)

Request: # lookup: test call for O=C(/C=C/c1cccc(Oc2ccccc2)c1)NCc1ccc(C(=O)NCCc2ccccc2)cc1
Result: no (0)

Request: # lookup: test call for CC(C)(C)OC(=O)NC1CCCC1C(=O)C1=CCCC1 (centres undefined)
Result: no (0)

Request: # lookup: test call for CC1=C(C(=O)NCc2ccccc2)C(c2ccc(C3C(C(=O)NCc4ccccc4)=C(C)NC(C)=C3C(=O)NCc3ccccc3)cc2)C(C(=O)NCc2ccccc2)=C(C)N1
Result: no (0)

Request: # lookup: test call for CC(=O)c1ccccc1NS(=O)(=O)c1ccc2nc(C)n(NS(=O)(=O)c3ccccc3C(C)=O)c(=O)c2c1
Result: no (0)

Request: # lookup: test call for COc1ccc(-n2nnc3c(C#N)c(C)c(-c4ccccc4)n3c2=O)cc1
Result: no (0)

Request: # lookup: test call for Cn1c(/C=C/CO)c(CO)c2c1C(=O)C=C(N1CC1)C2=O [APAZIQUONE]
Result: yes (1)

Request: # lookup: test call for CC1=NN(c2ccccc2)C(=O)C1/N=N/c1ccc(Br)c(C)c1 (centres undefined)
Result: no (0)

Request: # lookup: test call for Cc1cn(CC2=NCCCN2)c(=O)[nH]c1=O
Result: no (0)

Request: # lookup: test call for CC(Oc1ccc2c(-c3ccccc3)cc(=O)oc2c1)C(=O)O (centres undefined)
Result: no (0)

Request: # lookup: test call for CC(C)=NN/C=N\C(C#N)=C(/N)C#N
Result: no (0)

---

System: OVCAR-5
ASSAY METHOD TEXT: NCI tumour cell line growth inhibition, 48 h
The source made the active and inactive calls. Cut-off read from the data, not from the text of the source: active = GI50 up to about 1.1 µM and inactive = higher.
Parameter call: string, one of active, inactive

Cc1c(C)n(-c2ccccc2)c2nc([S+](C)[O-])nc([S+](C)[O-])c12 (stereo not given); inactive
O=c1[nH]c(-c2ccccc2)nc2c1sc1nc3ccccc3n12; inactive
N#CC(c1ccccc1)(c1ccccc1)[C@@H](c1ccccc1)[C@H](Cc1ccccc1)NS(=O)(=O)c1ccccc1; inactive

Request: # lookup: test call for COc1ccc(-n2nnc3c(C#N)c(C)c(-c4ccccc4)n3c2=O)cc1
Result: inactive

Request: # lookup: test call for c1ccc2c3nnc(c2c1)SCCCSc1nnc(c2ccccc12)SCCCS3
Result: inactive

Request: # lookup: test call for O=C1c2ccccc2C(=O)N1CCCOCc1cnc(O)nc1O
Result: inactive

Request: # lookup: test call for CCCNC1=C2CC(C)CC(OC)[C@@H](O)[C@H](C)/C=C(\C)C(OC(N)=O)C(OC)/C=C\C=C(/C)C(=O)NC(=CC1=O)C2=O (stereo not given in full)
Result: active

---

Tested on: K562
ASSAY METHOD TEXT: NCI tumour cell line growth inhibition, 48 h
Calls of active or inactive are those of the source. No stated cut-off is given here; in the data, active = GI50 up to about 1.1 µM and inactive = higher.
I'd be grateful if you could share measured GI50 for these entries.

Field: example entries. Status: answers known.
[N-]=[N+]=Nc1ccccc1Oc1ccccc1; > 100 µM (inactive)
O=C1Cc2c([nH]c3c(Cl)cccc23)-c2ccccc2N1; > 100 µM (inactive)
CC[C@]1(Cc2ccc(OC)c(OC)c2)C=[N+]([O-])O[C@H](OC2CCCC2(c2ccccc2)c2ccccc2)[C@@H]1OC(=O)c1ccccc1 (stereo partly specified); 3.94 µM (inactive)
Cc1cc(C)c(S(=O)(=O)N(CCCN)OCCCN)c(C)c1; > 100 µM (inactive)
Cc1ccc(NC(=O)CC/C(CC(=O)C(C)(C)C)=N/Nc2nnc(C)n2N)cc1C; 43 µM (inactive)

For the next question, use this compound.
The compound CC1(C)COC(c2ccc(C(=O)c3ccc(Cl)cc3)cc2)=N1 on K562: GI50 was 28.6 µM (inactive)
